# KIDNEY_L per record follows
- Species: Rattus norvegicus
- METHOD: Open TG-GATES - Regimen: Daily Repeat
- Type: toxicity, organism-based, Sprague-Dawley
- Parameters: regimen Daily Repeat, gender Male, age 6 weeks
- CONDITIONS USED: in vivo, po, 1000 mg/kg, […], tissue Kidney, route gavage, dose level High, time 28 day
// note: answer is a bare numeric in g

Past entries and their recorded results:
• COC1=CC(=O)C[C@@H](C)[C@]12Oc1c(Cl)c(OC)cc(OC)c1C2=O = 1.6
• NC(N)=Nc1nc(CSCCC(N)=NS(N)(=O)=O)cs1 = 1.3
• CCOc1ccc(NC(=O)CC(C)O)cc1 (stereo unspecified) = 1.6
• CCOC(=O)CCC(=O)O[C@H]1[C@H](O[C@@H]2[C@@H](C)[C@H](O[C@H]3C[C@@](C)(OC)[C@@H](O)[C@H](C)O3)[C@@H](C)C(=O)O[C@H](CC)[C@@](C)(O)[C@H](O)[C@@H](C)C(=O)[C@H](C)C[C@@]2(C)O)O[C@H](C)C[C@@H]1N(C)C [ERYTHROMYCIN ETHYLSUCCINATE] = 1.4
• COc1ccc2[nH]c([S+]([O-])Cc3ncc(C)c(OC)c3C)nc2c1 (stereo unspecified) = 1.2

Now consider the entry below.
Ask | Kindly indicate its recorded KIDNEY_L. Item: CC(C)OC(=O)C(C)(C)Oc1ccc(C(=O)c2ccc(Cl)cc2)cc1 [FENOFIBRATE]
Reply | 1.4

###

- Organism: Rattus norvegicus
- METHOD: Open TG-GATES - Regimen: Single
- Type: toxicity, organism-based, Sprague-Dawley
- Parameters: regimen Single, gender Male, age 6 weeks
- CONDITIONS USED: in vivo, po, 100 mg/kg, 9 h, tissue Blood, route gavage, dose level Low
List of Neu values.
Express it in %; write the number only.

These solved cases illustrate the format of a correct answer.
• COC1=CC(=O)C[C@@H](C)[C@]12Oc1c(Cl)c(OC)cc(OC)c1C2=O = 22
• CCOC(=O)CCC(=O)O[C@H]1[C@H](O[C@@H]2[C@@H](C)[C@H](O[C@H]3C[C@@](C)(OC)[C@@H](O)[C@H](C)O3)[C@@H](C)C(=O)O[C@H](CC)[C@@](C)(O)[C@H](O)[C@@H](C)C(=O)[C@H](C)C[C@@]2(C)O)O[C@H](C)C[C@@H]1N(C)C [ERYTHROMYCIN ETHYLSUCCINATE] = 15.8
• NC(N)=Nc1nc(CSCCC(N)=NS(N)(=O)=O)cs1 = 19.2

Ask | Answer with the recorded Neu for the compound listed here: COc1ccc2[nH]c([S+]([O-])Cc3ncc(C)c(OC)c3C)nc2c1 (centres undefined)
Reply | 18.4

###

- Species: Rattus norvegicus
- METHOD: Open TG-GATES - Regimen: Single
- Assay type: toxicity, organism-based, Sprague-Dawley
- Parameters: regimen Single, gender Male, age 6 weeks
- CONDITIONS USED: in vivo, po, 30 mg/kg, 3 h, tissue Liver, route gavage, dose level Middle
PROPERTY: LIVER (g)
Express your answer in g, writing the number without its unit.

• CC1=C(/C=C/C(C)=C/C=C/C(C)=C/CO)C(C)(C)CCC1 = 9.3
• CN(C)CCCN1c2ccccc2CCc2ccc(Cl)cc21 = 9.7

Ask | Answer with the recorded LIVER of CN(C)CCN(Cc1cccs1)c1ccccn1 only.
Reply | 8.3

Ask | Let me know recorded LIVER for CN(C)CCCN1c2ccccc2CCc2ccccc21 , thanks.
Reply | 9.5
